# System: ATP;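 note: ATP exposure 15 min at 22 °C before imaging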
# testProtocol: switch fluorescence ratio, 500 uM ATP over buffer (Cy3 cluster intensity, sum of 5 cycles each) (fold (ratio)); higher = stronger signal-on switching upon ATP binding; sequences stand for … in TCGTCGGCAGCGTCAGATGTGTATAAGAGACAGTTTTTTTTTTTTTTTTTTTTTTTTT…TC
# conditions: aptamer strand: ATP DNA aptamer (quencher-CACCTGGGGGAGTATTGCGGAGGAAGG + anchor), 100 nM annealed; ATP concentration: 500 uM
measuredEndpoint: switch fluorescence ratio
One number for each entry.

INSERT INTO measurements (querysequence, measuredendpoint, resultnumber) VALUES
  ('TAGAAGGGGC', 'switch fluorescence ratio', 0.989);

Batch request: switch fluorescence ratio per item, same order as input.
1. CGATTCGTCT
2. ATTAAAAAAC
3. CGTCGGGGTG
4. TTTTCGCTAT
5. AAAATTTAAT

stdout:
1. 1.05
2. 1.01
3. 1
4. 2.29
5. 1.01

Could you report switch fluorescence ratio for every entry in the following list?
1. ATAAACCGGG
2. TTGGGAGTTA
3. TCGTTTAGTG
4. TCGGCTGTTG

stdout:
1: 1.02; 2: 0.994; 3: 0.981; 4: 1

Field: switch fluorescence ratio. Fill in for each record below.
1. CATAAGGCTC
2. GGCAGGCGGA
3. GCTCATGAAT
4. ACAGCTGGGT
5. GGGGGATGG
6. TTGGTTGGTG

stdout:
1. 1
2. 1
3. 1
4. 0.98
5. 0.994
6. 1.03

---

# Test system: ATP;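 note: ATP exposure 15 min at 22 °C before imaging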
# testProtocol: switch fluorescence ratio, 500 uM ATP over buffer (Cy3 cluster intensity, sum of 5 cycles each) (fold (ratio)); higher = stronger signal-on switching upon ATP binding; sequences stand for … in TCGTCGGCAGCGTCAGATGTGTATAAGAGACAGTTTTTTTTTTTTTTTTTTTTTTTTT…TC
# conditions: aptamer strand: ATP DNA aptamer (quencher-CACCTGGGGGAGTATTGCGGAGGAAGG + anchor), 100 nM annealed; ATP concentration: 500 uM
For each record, write down the corresponding switch fluorescence ratio.
Answers are plain numbers.

INSERT INTO results (querysequence, resultnumber) VALUES
  ('TAAAGAAAGA', 1.1),
  ('TACGGGACGC', 1.12),
  ('TAAAACTTGG', 0.999),
  ('TGCAAGCGGG', 0.985),
  ('TGGGTTTTTG', 1.01);

Lab note: each sequence below needs its switch fluorescence ratio filled in.
1. GTTTACCGGA
2. ACATAGGCGG

stdout:
1.05
1.02

---

# Test system: ATP;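 note: ATP exposure 15 min at 22 °C before imaging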
# testProtocol: switch fluorescence ratio, 500 uM ATP over buffer (Cy3 cluster intensity, sum of 5 cycles each) (fold (ratio)); higher = stronger signal-on switching upon ATP binding; sequences stand for … in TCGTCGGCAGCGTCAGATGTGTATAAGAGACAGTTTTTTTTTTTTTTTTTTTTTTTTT…TC
# conditions: aptamer strand: ATP DNA aptamer (quencher-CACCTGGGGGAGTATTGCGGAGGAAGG + anchor), 100 nM annealed; ATP concentration: 500 uM
Provide the reported switch fluorescence ratio of each item.

Answered examples (4):
INSERT INTO results (querysequence, assaytarget, measuredendpoint, result) VALUES
  ('GGTTAGGGGA', 'ATP', 'switch fluorescence ratio', 0.994),
  ('GAGGGTACTG', 'ATP', 'switch fluorescence ratio', 1.03),
  ('AGGCACGTGT', 'ATP', 'switch fluorescence ratio', 1.02),
  ('TTGGGCATTG', 'ATP', 'switch fluorescence ratio', 1.01);

Dear colleague, could you send me switch fluorescence ratio for each of the items below? Thanks.
1. CGTGGAGGTG
2. ACGTCGGGTG
3. TTACGGAAT
4. ACTGTAGTCT
5. TAGCTTGTTG

stdout:
[1.07, 1.25, 1.1, 1.06, 1.02]

Here are 2 sequences. What values of switch fluorescence ratio were reported for them?
1. GGTTTGGCTG
2. GGACTCTGGG

stdout:
1. 0.993
2. 0.966

For each of the sequences below, state switch fluorescence ratio.
1. TTACGTGGGA
2. AGGGTAAACT
3. AGCTATGTTT
4. GGGGGCGGAA

stdout:
1. 1.02
2. 1.27
3. 0.979
4. 1
